Entry source: patent US20210214435A1

- study-system: human GPVI-Fc (isoform and haplotype not stated) used in the competition ELISA (human) (UniProt Q9HCN6)
- experiment: Competition ELISA (MSD): human GPVI-Fc preincubated with Fab, then on coated rat-tail collagen (competitor)
Listed binders paired with reported Maximum inhibition at 200 nM Fab [%]
Just the number please, in %, no unit attached.

The following binders have reported results that may help.
Fab #4 comprising a modified heavy chain constant region (Fab, V domains shown) VH: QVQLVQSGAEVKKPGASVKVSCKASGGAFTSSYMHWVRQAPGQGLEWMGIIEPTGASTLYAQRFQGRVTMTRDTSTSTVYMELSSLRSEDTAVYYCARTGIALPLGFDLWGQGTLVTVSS VL: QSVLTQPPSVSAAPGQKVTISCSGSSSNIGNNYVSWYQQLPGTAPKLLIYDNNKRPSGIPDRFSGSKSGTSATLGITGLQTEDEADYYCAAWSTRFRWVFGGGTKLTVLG : 86
Fab #2 comprising a modified heavy chain constant region (Fab, V domains shown) VH: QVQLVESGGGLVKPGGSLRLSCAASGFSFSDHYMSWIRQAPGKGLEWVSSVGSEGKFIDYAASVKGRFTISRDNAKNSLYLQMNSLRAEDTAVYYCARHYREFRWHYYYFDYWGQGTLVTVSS VL: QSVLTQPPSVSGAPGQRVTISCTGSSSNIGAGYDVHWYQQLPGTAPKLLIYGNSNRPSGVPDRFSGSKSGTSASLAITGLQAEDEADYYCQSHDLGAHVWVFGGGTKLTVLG : 100
Fab #1 comprising a modified heavy chain constant region (Fab, V domains shown) VH: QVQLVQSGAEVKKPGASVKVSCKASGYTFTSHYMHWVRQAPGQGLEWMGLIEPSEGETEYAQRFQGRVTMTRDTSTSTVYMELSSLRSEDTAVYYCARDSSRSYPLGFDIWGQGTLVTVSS VL: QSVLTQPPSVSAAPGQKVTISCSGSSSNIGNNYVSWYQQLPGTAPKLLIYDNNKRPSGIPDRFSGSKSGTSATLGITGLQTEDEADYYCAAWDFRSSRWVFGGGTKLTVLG : 89
Reference Control Antibody RefFab #1 (humanized GPVI antibody of WO2011073954A2, SANOFI) (Fab, V domains shown) VH: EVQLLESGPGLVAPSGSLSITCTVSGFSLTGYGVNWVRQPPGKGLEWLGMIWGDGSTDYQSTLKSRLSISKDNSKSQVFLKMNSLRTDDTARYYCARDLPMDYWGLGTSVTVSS VL: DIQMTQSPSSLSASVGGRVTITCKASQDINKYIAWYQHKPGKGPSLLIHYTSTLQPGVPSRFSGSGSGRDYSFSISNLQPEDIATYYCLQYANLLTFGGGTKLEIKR : 99

Shifting focus to the binder that follows.
Output measured Maximum inhibition at 200 nM Fab [%] for this item: Fab #3 comprising a modified heavy chain constant region (Fab, V domains shown) VH: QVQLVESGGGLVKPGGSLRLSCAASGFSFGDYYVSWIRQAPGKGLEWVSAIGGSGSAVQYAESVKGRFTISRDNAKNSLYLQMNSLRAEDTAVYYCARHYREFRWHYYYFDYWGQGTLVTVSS VL: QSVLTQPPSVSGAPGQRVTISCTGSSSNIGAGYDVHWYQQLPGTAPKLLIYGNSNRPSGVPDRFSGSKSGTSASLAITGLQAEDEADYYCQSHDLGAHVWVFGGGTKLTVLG 99
